Data origin: ChEMBL document CHEMBL3351924

molecular target: Indoleamine 2,3-dioxygenase 1 (Homo sapiens); experiment: Inhibition of IDO1 (unknown origin) using L-tryptophan substrate incubated for 60 mins by HPLC; settings: read-out: IC50
IC50 for assorted molecules
MEASURE NAME: IC50 (µM)

molecule="Clc1ccc(COC(Cn2ccnc2)c2ccc(Cl)cc2Cl)c(Cl)c1 (stereo not given) [MICONAZOLE]" measure_name=IC50 result_value=6.7
molecule="NNCCc1ccccc1 [PHENELZINE]" measure_name=IC50 result_value=14
molecule="Clc1ccc(C(Cn2ccnc2)OCc2c(Cl)cccc2Cl)c(Cl)c1 (stereo not given) [ISOCONAZOLE]" measure_name=IC50 result_value=23
molecule=CCOC(=O)c1ccc(-n2sccc2=O)cc1 measure_name=IC50 result_value=15
molecule="Clc1ccc(C(Cn2ccnc2)OCc2csc3c(Cl)cccc23)c(Cl)c1 (stereo not given) [SERTACONAZOLE]" measure_name=IC50 result_value=8.4

###

molecular target: Indoleamine 2,3-dioxygenase 1 (Homo sapiens, UniProt P14902); experiment: Inhibition of IDO1 (unknown origin) using L-tryptophan substrate incubated for 60 mins by HPLC
Sequence (P14902 whole entry): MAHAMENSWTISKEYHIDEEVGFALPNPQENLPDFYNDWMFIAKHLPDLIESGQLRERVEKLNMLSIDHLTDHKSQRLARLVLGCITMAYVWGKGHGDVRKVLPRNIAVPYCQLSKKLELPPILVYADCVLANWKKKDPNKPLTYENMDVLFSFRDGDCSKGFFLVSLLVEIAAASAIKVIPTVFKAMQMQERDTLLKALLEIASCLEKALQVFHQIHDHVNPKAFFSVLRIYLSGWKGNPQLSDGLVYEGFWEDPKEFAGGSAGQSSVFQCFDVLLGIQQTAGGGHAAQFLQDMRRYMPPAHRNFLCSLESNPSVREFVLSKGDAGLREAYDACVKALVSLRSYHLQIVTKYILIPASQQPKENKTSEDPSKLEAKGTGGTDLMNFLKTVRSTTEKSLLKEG
MEASURE NAME: IC50

compound=Oc1ccc(Br)cc1/C=N/c1ccc2[nH]nnc2c1 assay_target="Indoleamine 2,3-dioxygenase 1 (Homo sapiens, UniProt P14902)" result_value="Not Active"
compound="Clc1ccc(CCC(Cn2ccnc2)Sc2c(Cl)cccc2Cl)cc1 (stereo not given)" assay_target="Indoleamine 2,3-dioxygenase 1 (Homo sapiens, UniProt P14902)" result_value="Not Active"
compound="COC(=O)C1=C(C)NC(C)=C(C(=O)OCC(C)C)C1c1ccccc1[N+](=O)[O-] (stereo not given)" assay_target="Indoleamine 2,3-dioxygenase 1 (Homo sapiens, UniProt P14902)" result_value="Not Active"
compound="Clc1ccc(COC(Cn2ccnc2)c2ccc(Cl)cc2Cl)cc1 (stereo not given)" assay_target="Indoleamine 2,3-dioxygenase 1 (Homo sapiens, UniProt P14902)" result_value="8.1 µM"
compound=NC(=O)N/N=C/c1ccc(-c2ccc(C(F)(F)F)cc2[N+](=O)[O-])o1 assay_target="Indoleamine 2,3-dioxygenase 1 (Homo sapiens, UniProt P14902)" result_value="Not Active"
compound=NC(=S)N/N=C1\CCc2ccccc21 assay_target="Indoleamine 2,3-dioxygenase 1 (Homo sapiens, UniProt P14902)" result_value="Not Active"
compound="COCCCOc1ccnc(C[S+]([O-])c2nc3ccccc3[nH]2)c1C (stereo not given)" assay_target="Indoleamine 2,3-dioxygenase 1 (Homo sapiens, UniProt P14902)" result_value="Not Active"
compound="Clc1ccc(C(Cn2ccnc2)OCc2ccsc2Cl)c(Cl)c1 (stereo not given)" assay_target="Indoleamine 2,3-dioxygenase 1 (Homo sapiens, UniProt P14902)" result_value="Not Active"
compound=Cc1cc(C2CCCCC2)n(O)c(=O)c1 assay_target="Indoleamine 2,3-dioxygenase 1 (Homo sapiens, UniProt P14902)" result_value="Not Active"
compound=CC1=C(C#N)C(c2ccc(-c3ccc(Cl)cc3[N+](=O)[O-])o2)C(C#N)=C(C)N1 assay_target="Indoleamine 2,3-dioxygenase 1 (Homo sapiens, UniProt P14902)" result_value="Not Active"
compound=CCN(CC)C(=S)SSC(=S)N(CC)CC assay_target="Indoleamine 2,3-dioxygenase 1 (Homo sapiens, UniProt P14902)" result_value="Not Active"
compound=Nc1n[nH]c2cc(O)[nH]c(=O)c12 assay_target="Indoleamine 2,3-dioxygenase 1 (Homo sapiens, UniProt P14902)" result_value="Not Active"
compound=COC(=O)C1=C(C)NC(C)=C(C(=O)OC)C1c1ccccc1[N+](=O)[O-] assay_target="Indoleamine 2,3-dioxygenase 1 (Homo sapiens, UniProt P14902)" result_value="Not Active"
compound=S=c1[nH]cc(-c2ccc(Cl)cc2)o1 assay_target="Indoleamine 2,3-dioxygenase 1 (Homo sapiens, UniProt P14902)" result_value="Not Active"
compound="Sc1ncnc2nc[nH]c12 [MERCAPTOPURINE ANHYDROUS]" assay_target="Indoleamine 2,3-dioxygenase 1 (Homo sapiens, UniProt P14902)" result_value="Not Active"
